Reference source for all entries: the supplement of paper PMC11451515

system: NOMO1; assay: cell viability relative to DMSO control; higher = less cytotoxic; settings: RPMI 5 mM glucose + 10% FBS; 48 h; 0.00702 µM
quantity kind: cell viability (%)
Answer in %, number only, no unit symbol.

compound CN(C)c1nc(Cc2ccc(NC(=O)c3ccc4ccccc4c3)cc2)nc(Cl)c1CC(=O)O , cell viability observed: 100

Form field cell viability, entry Cc1cc(Nc2nc(N[C@@H](C)c3ccc(F)cc3)c(C#N)cc2F)n[nH]1 : 91.2

Field cell viability (entry CN1CCC[C@@H]1CCO[C@](C)(c1ccccc1)c1ccc(Cl)cc1 ) reads 101

The compound listed as Nc1cc(C(F)(F)F)c(-c2cc(N3CCOCC3)nc(N3CCOCC3)n2)cn1 has a reported cell viability of 118

For O=C(c1ccc(F)c(F)c1Nc1ccc(I)cc1F)N1CC(O)([C@@H]2CCCCN2)C1 the compound record lists cell viability as 98.2

For record COc1ccc(Nc2nccc(NCCO)n2)cc1 the listed cell viability is 73.6

Consider Cc1ccc([S+](=O)([O-])Nc2nc3ccccc3nc2Nc2ccc3nsnc3c2)cc1 . Its measured cell viability is 89.2

// cell viability lookup, compound = COc1ccc2[nH]c([S+]([O-])Cc3ncc(C)c(OC)c3C)nc2c1 (stereo not given) , result: 78.3

Consider COc1cc([C@H]2Oc3cc([C@H]4Oc5cc(O)cc(O)c5C(=O)[C@@H]4O)ccc3O[C@@H]2CO)ccc1O . Its measured cell viability is 118

Lookup result for O=C(O)CCn1c2c(c3ccccc31)C[C@H](N[S+](=O)([O-])c1ccc(F)cc1)CC2 ; measured cell viability: 108

Reported cell viability for C[C@H]1[C@@H](C(=O)C[C@H]2O[C@@H]3O[C@]4(C)CC[C@H]5[C@H](C)CC[C@@H]([C@H]2C)[C@@]35OO4)O[C@@H]2O[C@]3(C)CC[C@H]4[C@H](C)CC[C@@H]1[C@@]24OO3 was 102

COc1ccc(C2Sc3ccccc3N(CCN(C)C)C(=O)C2OC(C)=O)cc1 (stereo not given) yielded cell viability of 105

In plain terms, COc1cc2c(Nc3ccc(Br)cc3F)ncnc2cc1OCC1CCN(C)CC1 has a documented cell viability of 76.5

Lab note: measured cell viability of Cc1cc(C(=O)N2CCN(c3cccc(Cl)c3)CC2)n(-c2ccccc2)n1 was 96.1

cell viability for CN1c2ccccc2C(=O)N2CCc3c([nH]c4ccccc34)C21 (stereo not given) is 122

The recorded cell viability for C=CC(=O)Nc1cccc(Nc2nc(NC3CCC(N(C)C)CC3)nc3c2ncn3C(C)C)c1 (stereo not given) is 115

// sample COC(=O)C1C2CC3c4[nH]c5cc(OC)ccc5c4CCN3CC2CC(OC(=O)c2cc(OC)c(OC)c(OC)c2)C1OC (stereo not given) , its cell viability was 107

Input C[C@@H](NC(=O)c1ncnc(N)c1Cl)c1ncc(C(=O)Nc2cc(C(F)(F)F)c(Cl)cn2)s1 . Output cell viability: 124

Record summary for NC(=O)c1cccc2nc(-c3ccc([C@H]4CCCN4)cc3F)[nH]c12 : reported cell viability = 104

Data point: COCCOc1nc(-c2ccc(Cl)c(Cl)c2)n(-c2ccc(NC(=O)CCl)cc2)n1 ; cell viability = 84.4
